These measurements were taken from PubChem BioAssay.

Answer each item with its documented composite z-score.
experiment: COS7 lysate on small-molecule microarray, probe aHis, 635 nm (AID 1123); settings: COS7 cell lysate, fluorescence, higher = more signal;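 note: z-score combines 667nm fluorescence intensity with signal-to-noise per printed compound spot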

For orientation, consider the following solved cases.
compound: C=C(C)C(=O)OC[C@H]1CN2[C@@H](CC[C@@H](C)[C@@H]2c2ccc(Br)cc2)C(=O)O1
obs value: 0.379
//
compound: CC(C)=CCCC(C)=CCON=C1C[C@@H](O)[C@@H](O)[C@@H]2[C@@H]3C(=O)N(Cc4ccc5c(c4)OCO5)C(=O)[C@@H]3CC[C@@H]12
obs value: 1.29
//
compound: COC(=O)CC=C[C@@H](C)[C@@H](C=NOC(C)CN1CCCCc2nc(C)c(C)cc21)OC (some centres undefined)
obs value: 0.043

// moving on: another record for composite z-score
*Q* Request the reported composite z-score associated with C#CCCCON=C1[C@H]2CCn3c(=O)n(Cc4cc5c(cc4Cl)OCO5)c(=O)n3[C@H]2[C@H](O)[C@@H]2O[C@H]12
*A* -0.138

====

molecular target: Torsin-1A-interacting protein 2 (Homo sapiens) (UniProt Q8NFQ8); assay: LULL1 binders on small-molecule microarray, primary screen, cell lysate, human LULL1 lysate, 635/667 nm fluorescence (AID 1092); settings: hLULL1 lysate binding, 635 nm fluorescence, higher = more signal;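 note: probe is lysate of COS7 cells overexpressing human LULL1; score merges per-feature 667 nm fluorescence with signal-to-noise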
Sequence (Q8NFQ8 whole entry, looked up): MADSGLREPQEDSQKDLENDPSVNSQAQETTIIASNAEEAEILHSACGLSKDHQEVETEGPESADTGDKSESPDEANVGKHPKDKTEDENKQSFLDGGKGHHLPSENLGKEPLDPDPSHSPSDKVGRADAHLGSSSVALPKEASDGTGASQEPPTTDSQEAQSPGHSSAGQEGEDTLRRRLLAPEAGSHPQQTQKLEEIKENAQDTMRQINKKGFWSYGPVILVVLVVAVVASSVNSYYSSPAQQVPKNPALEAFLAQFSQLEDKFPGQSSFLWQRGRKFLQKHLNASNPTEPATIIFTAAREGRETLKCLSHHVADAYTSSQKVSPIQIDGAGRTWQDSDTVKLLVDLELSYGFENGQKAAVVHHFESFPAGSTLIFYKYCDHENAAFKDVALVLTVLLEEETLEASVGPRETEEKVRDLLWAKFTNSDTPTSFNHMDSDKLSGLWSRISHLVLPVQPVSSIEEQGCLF
Answer each item with its documented composite z-score.
Numbers only.

Okay, here is my list. What is composite z-score for each of these?
1. CC(C)(C)N1C(=O)[C@H]2[C@H]3[C@H](O)[C@H](O)CC(=NNC(=O)OCc4ccccc4)[C@@H]3CC[C@H]2C1=O
2. CC(C)=NO[C@H](C)c1cn([C@@H]2COC[C@H]2O)nn1
3. CC(=O)OC[C@H]1O[C@@H](ON=C(C)CCC(=O)OC[C@H]2O[C@H](C#Cc3ccccc3)C=C[C@@H]2Oc2ccc(C)cc2)[C@H](OC(C)=O)[C@@H](OC(C)=O)[C@@H]1OC(C)=O
4. CCOC(=O)[C@H](CC(C)C)NC(=O)CCC1CC(OC(=O)NCCc2ccc(F)cc2)CC2(CCCC(COC(=O)NCc3cccc(C(F)(F)F)c3)O2)O1 (stereo not given in full)
5. CCN(CC)CC(O)CN1CCCCc2nc(C)c(C)cc21 (stereo not given)
6. CC(=O)OC[C@H]1O[C@@H](ON=C(C)C)[C@H](OC(C)=O)[C@@H](OC(C)=O)[C@@H]1OC(C)=O
7. CC(CCC(=O)OC[C@H]1O[C@H](C#Cc2ccccc2)C=C[C@@H]1Oc1ccc(C)cc1)=NOC[C@@H](C)[C@H](OCc1ccccc1)C(C)C

*A*
1: 0.883; 2: 0.242; 3: 2.3; 4: 1.6; 5: 0.657; 6: -1.31; 7: -1.27

Okay, here is my list. What is composite z-score for each of these?
1. C[C@H]1C=CCC(=O)OC[C@H](C)C(=O)N2CCC[C@H]2C(=O)OC1
2. CC(CCN1CCc2nc(-c3ccccc3)c(-c3ccccc3)cc2C1)=NOC(C)CN1CCCc2nc(C)c(C)cc21 (stereo not given)

*A*
1: -1.44; 2: 2.22

Okay, here is my list. What is composite z-score for each of these?
1. CC(C)=CCCC(C)=CCON=C1C[C@@H](O)[C@@H](O)[C@@H]2[C@@H]3C(=O)N(c4cccc(Oc5ccccc5)c4)C(=O)[C@@H]3CC[C@H]12
2. COc1cccc([C@H]2Oc3ccc(OC)cc3C(=NOCC[C@@H]3C=C[C@H](OC(C)=O)[C@@H](COC(C)=O)O3)[C@@H]2O)c1
3. O=C1[C@H]2[C@H]3[C@H](O)[C@H](O)CC(=NOC[C@@H](O)COCc4ccco4)[C@@H]3CC[C@H]2C(=O)N1c1cccc(Oc2ccccc2)c1
4. CCc1cc2c(nc1CC)CCN(CCC(C)=NOC(C)CN1CCCCc3nc(C)c(C)cc31)C2 (stereo not given)
5. COC(=O)[C@H](C)NC(=O)CCC1CC(OC(=O)NCc2cccc3ccccc23)CC2(CCCC(COC(=O)NCCC(C)C)O2)O1 (stereo not given in full)
6. CN1CCc2nc(-c3ccccc3)c(-c3ccccc3)cc2C1

*A*
1: 1.12; 2: 1; 3: -0.75; 4: 2.42; 5: 1.84; 6: -0.0501

====

target: Dickkopf-related protein 1 (Homo sapiens) (UniProt O94907); assay: DKK1 binders on small-molecule microarrays, primary screen, biochemical, small-molecule microarray, 635 nm fluorescence scan (AID 1106); conditions: DKK1 binding, higher = more signal;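 note: score merges emission near 667 nm with signal to noise over three replicate slides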
Sequence (O94907 whole entry, looked up): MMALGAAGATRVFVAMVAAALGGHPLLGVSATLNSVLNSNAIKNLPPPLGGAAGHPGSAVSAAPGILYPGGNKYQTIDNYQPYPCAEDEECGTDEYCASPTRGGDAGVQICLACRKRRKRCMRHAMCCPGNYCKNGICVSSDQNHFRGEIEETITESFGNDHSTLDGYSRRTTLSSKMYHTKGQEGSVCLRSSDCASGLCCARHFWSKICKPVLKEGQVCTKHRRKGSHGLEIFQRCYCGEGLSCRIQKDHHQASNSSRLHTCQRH
Each record gets a class by composite z-score: bin 0 (below 0.4), bin 1 (0.4 to below 0.8), bin 2 (0.8 or more)

These recorded examples may help you get a feel for the data.
compound: C[C@H]1CC[C@H]2C(=O)N[C@H](Cc3ccccc3)C(=O)N2[C@@H]1c1ccccc1
class: bin 1

compound: CCOC(=O)NN=C1C[C@@H](O)[C@@H](O)[C@@H]2[C@@H]3C(=O)N(CC)C(=O)[C@@H]3CC[C@H]12
class: bin 0

compound: COC(=O)CC=C[C@@H](C)[C@@H](C=NOC[C@@H](O)COCc1ccco1)OC
class: bin 2

compound: CCOC(=O)[C@H](Cc1ccccc1)NC(=O)CCC1CC(OC(=O)NCc2ccc3c(c2)OCO3)CC2(CCCC(COC(=O)NCCOC)O2)O1 (some centres undefined)
class: bin 1

compound: O=C1[C@H]2[C@H]3[C@H](O)[C@H](O)CC(=NO[C@@H]4O[C@H](CO)[C@@H](O)[C@H](O)[C@H]4O)[C@H]3CC[C@H]2C(=O)N1C[C@@H]1CCCO1
class: bin 0

compound: CC(C)(C)N1C(=O)[C@H]2[C@H]3[C@H](O)[C@H](O)CC(=NOC[C@@H](O)COCc4ccco4)[C@H]3CC[C@H]2C1=O
class: bin 0

compound: O=C1C[C@@H](O)[C@@H](O)[C@@H]2[C@@H]3C(=O)N(c4ccc(F)cc4F)C(=O)[C@@H]3CC[C@H]12
class: bin 1

compound: C[C@H]1C=CCC(=O)OC[C@H](C)C(=O)N2CCC[C@H]2C(=O)OC1
class: bin 2

*Q* Any idea which band CCOC(=O)[C@H](Cc1ccccc1)NC(=O)CCC1CC(OC(=O)NCCc2ccc(F)cc2)CC2(CCCC(COC(=O)NCc3cccc(C(F)(F)F)c3)O2)O1 (some centres undefined) is in?
*A* bin 1

*Q* And what about the compound CCOC(=O)[C@H](Cc1ccccc1)NC(=O)CCC1CC(OC(=O)NCc2cccc3ccccc23)CC2(CCCC(COC(=O)NCCc3ccccc3OC)O2)O1 (some centres undefined) ?
*A* bin 0

*Q* And what about the compound COC(=O)[C@H](C)NC(=O)CCC1CC(OC(=O)NCc2cccc3ccccc23)CC2(CCCC(COC(=O)NCCCN3CCCC3=O)O2)O1 (some centres undefined) ?
*A* bin 1

*Q* And what about the compound O=C1[C@H]2[C@H]3[C@H](O)[C@H](O)CC(=NOC[C@@H](O)COCc4ccco4)[C@@H]3CC[C@H]2C(=O)N1Cc1ccc2c(c1)OCO2 ?
*A* bin 2

====

test: basal 3T3-L1 adipocyte mitochondrial potential changes, profiling panel, cell-based, JC-1 fluorescence, 3T3-L1 adipocytes, 24 h, 100 nL compound (AID 1168); settings: JC-1 mitochondrial fluorescence, higher = more signal, called active from +8 up or from −8 down; note: test concentration not given here
property: z-score
One number for each entry.

For orientation, consider the following solved cases.
molecule: COC(=O)[C@H](C)NC(=O)CCC1CC(OC(=O)NCc2cccc3ccccc23)CC2(CCCC(COC(=O)NCc3cccc(C(F)(F)F)c3)O2)O1 (stereo not given in full)
z-score: 0.733

molecule: COC(=O)CC=C[C@@H](C)[C@@H](C=NOC(C)CN1CCCc2nc(C)c(C)cc21)NS(=O)(=O)c1ccc(C)cc1 (stereo not given in full)
z-score: -0.774

molecule: CC(C)(C)N1C(=O)[C@H]2[C@H]3[C@H](O)[C@H](O)CC(=NNC(=O)OCc4ccccc4)[C@@H]3CC[C@H]2C1=O
z-score: -0.323

Okay, here is my list. What is z-score for each of these?
1. COC(=O)CC=C[C@@H](C)[C@@H](C=NOC(C)CN1CCCCc2nc(C)c(C)cc21)NS(=O)(=O)c1ccc(C)cc1 (stereo not given in full)
2. CCN1C(=O)[C@H]2[C@H]3[C@H](O)[C@H](O)CC(=NOC[C@@H](O)COCc4ccco4)[C@H]3CC[C@H]2C1=O
3. C[C@@H]1C=CCC(=O)OC[C@H](C)C(=O)N[C@@H](Cc2ccccc2)C(=O)OC1
4. CC(C)CON=C1C[C@@H](O)[C@@H](O)[C@@H]2[C@@H]3C(=O)N(c4ccc(F)cc4F)C(=O)[C@@H]3CC[C@@H]12
5. CO[C@@H]1[C@H](O)CO[C@H]1C=Cc1ccccc1
6. COC(=O)[C@@H]1CC[C@H](C)[C@@H](c2ccc(Br)cc2)N1C[C@@H](O)CN=[N+]=[N-]
7. O=C1C[C@@H](O)[C@@H](O)[C@@H]2[C@@H]3C(=O)N(Cc4ccccc4)C(=O)[C@@H]3CC[C@H]12
8. CCN1C(=O)[C@H]2[C@H]3[C@H](O)[C@H](O)CC(=NO[C@H](C)c4cn([C@@H]5COC[C@H]5O)nn4)[C@@H]3CC[C@H]2C1=O

*A*
1. -0.442
2. -0.128
3. 0.55
4. -0.4
5. -0.267
6. 0.866
7. -0.919
8. -1.37
